# Tested on: MOLT-4 leukemia
# testMethodNotes: NCI-60 one-dose screen, 48 h (100 = growth as untreated, 0 = no growth, -100 = all killed)
# cond: 10 µM unless noted
Compounds without any hit were thinned out: in the full panel of roughly 83,000, 20% have a hit.
measureName: growth (%)

compound	unitsText	quantitativeReadout
COc1cc(-c2cc(/C=C3\CCCCC3=O)[nH]n2)cc(OC)c1OC	%	82
O=c1cc(C2NCCc3c2[nH]c2ccccc32)c2c(ccc3ccccc32)o1 (configuration not stated)	%	75.1
C[C@]12CC[C@@H]3c4cc(O)c(O)cc4CC[C@H]3[C@@H]1CC[C@@H]2O	%	29.1
COC1=CC(c2ccc[nH]2)=N/C1=C\c1[nH]c(C)c(C(=O)CCCCC(=O)Nc2ccccc2)c1C	%	76.6
CCCCCCOc1ccc(C2(Cl)c3ccccc3N(C)c3ccccc32)cc1	%	74
CCCCCCC[C@@H](O)CC(=O)N[C@H](CCCCN)C(=O)N[C@H](Cc1c[nH]c2ccccc12)C(=O)NC(CCCCN)C(=O)N[C@H](CC(C)C)C(=O)N[C@H](Cc1ccccc1)C(=O)N[C@H](CCCCN)C(=O)N[C@H](CCCCN)C(=O)N[C@H](CC(C)C)C(=O)N1CCCC1C(=O)N[C@H](CCCCN)C(=O)N[C@H](Cc1ccccc1)C(=O)N[C@H](CC(C)C)C(=O)N[C@H](Cc1c[nH]cn1)C(=O)N[C@H](CC(C)C)C(=O)N[C@H](C)C(=O)N[C@H](CCCCN)C(=O)N[C@H](CCCCN)C(=O)N[C@H](Cc1ccccc1)C(=O)O (some centres not stated)	%	-25.9
Cc1cnc(NC(=O)C(Cc2ccccc2)NC(=O)c2ccccc2)s1 (configuration not stated)	%	40.8
O=S(=O)(NCCNc1cc(-c2cn(-c3ccccc3)nc2-c2ccccc2)ccn1)c1ccc(F)cc1	%	70.1
C[N+](C)(C)c1ccc(CC2c3ccccc3-c3ccccc32)cc1	%	76.4
C=CC(=O)N[C@H](/C=C/C(=O)OCC)Cc1ccc(-c2cc(Cl)cc(Cl)c2)cc1	%	74.3
COc1cc2c3c(c(=O)oc2cc1OS(=O)(=O)c1ccc(C(F)(F)F)cc1)CCCCC3	%	95.9
O=C(/C=C/CN1CCOCC1)Nc1cc2c(Nc3cccc(Cl)c3F)ncnc2cc1OCCOC(F)F	%	77.3
CCCCCCCCCN1C(=O)/C(=c2\sc3n(c2=O)C2C(NN=3)N(CC)C(=O)N2CC)c2ccccc21 (configuration not stated)	%	99.7
COc1cc(Cn2c(SCCC(=O)Nc3ccc(F)cc3)nc3ccccc3c2=O)cc(OC)c1OC	%	49
Cc1cc(C)c2c(=O)[nH]c(SCC(=O)Nc3cccc(S(=O)(=O)N(C)C)c3)nc2n1	%	96.1
Nc1ccc(S(=O)(=O)c2ccc(Cl)cc2)cc1	%	103
COc1ccc2c(c1)C(=O)/C(=C/c1ccc(O)cc1)O2	%	62.8

---

# System: NCI-H226 lung
# testMethodNotes: NCI-60 one-dose screen, 48 h (100 = growth as untreated, 0 = no growth, -100 = all killed)
# cond: 10 µM unless noted
# Experimental: Growth inhibition of the NCI-H226 human Non-Small Cell Lung tumor cell line is measured as a screen for anti-cancer activity. Cells are grown in 96 well plates and exposed to the test compound for 48 hours. Compounds are tested at a single concentration, which is 10^-5 M for most compounds. The reported endpoint is percent growth (GI% or GIPRCNT), where numbers from 0 - 100% represent growth inhibition, and numbers from -100% - 0 represent cell death. […]
This is part of a sample that, as a whole, favours compounds with a hit. Of some 83,000 tested, about 20% had one in any assay. Active and inactive are the calls of the source. Rule for the calls: active = growth percent below 10; inactive = the rest.

molecule	targetSystem	growth
Nc1c(C(=O)Nc2cccc([N+](=O)[O-])c2)sc2nc3c(cc12)C(O)CCC3 (configuration not stated)	NCI-H226 lung	80.8% (inactive)
COc1ccc(/C(=N\O)c2cc(OC)c(OC)c(OC)c2)c(OC)c1N	NCI-H226 lung	78.2% (inactive)
c1ccc(CCn2nnc3c(Nc4ccc(N5CCOCC5)cc4)ncnc32)cc1	NCI-H226 lung	90.2% (inactive)
COc1ccc2c(c1)C(C)Cc1c(N(C)C)ncnc1N2C (configuration not stated)	NCI-H226 lung	81.6% (inactive)
O=C(CC(O)c1ccncc1)c1ccccc1 (configuration not stated)	NCI-H226 lung	9.03% (active)
NC(=O)c1cccc(N2Cc3ccccc3OC3=C2C(=O)c2c(O)ccc(O)c2C3=O)c1	NCI-H226 lung	0.769% (active)
C[C@]12CC[C@@H]3c4cc(O)c(O)cc4CC[C@H]3[C@@H]1CC[C@@H]2O	NCI-H226 lung	97.8% (inactive)
COC(=O)[C@H]1[C@H](OC)[C@@H](OC(=O)/C=C/c2ccncc2)CC2CN3CCc4c([nH]c5cc(OC)ccc45)[C@@H]3C[C@@H]21 (some centres not stated)	NCI-H226 lung	73.7% (inactive)
COc1cc(C(=O)/C=C/c2cc(C(=O)c3cc(OC)c(OC)c(OC)c3)ccc2OC)ccc1N	NCI-H226 lung	-38.7% (active)
Cc1cc(-c2ccccc2)c(C)n1Cc1ccc(Cl)cc1	NCI-H226 lung	71.3% (inactive)
CN(C)c1ccc(/C=C\N=Nc2ccc(Br)cc2)cc1	NCI-H226 lung	79.7% (inactive)
COC1=CC(c2ccc[nH]2)=N/C1=C\c1[nH]c(C)c(C(=O)CCCCC(=O)Oc2ccc3c(c2)CCC2C3CC[C@]3(C)[C@@H](O)CC[C@@H]23)c1C (some centres not stated)	NCI-H226 lung	61.5% (inactive)
Cc1cc(Nc2nc(-c3ccncc3)nc3ccccc23)n[nH]1	NCI-H226 lung	79.1% (inactive)
COc1cc(OC)c(C(=O)/C=C/c2ccc(C(F)(F)F)cc2)c(OC)c1	NCI-H226 lung	64.7% (inactive)
Cc1ccc2c(c1)C(=O)C(c1c(-c3[nH]c(=O)c4ccc(C)cc4c3O)c(O)c3ccccc3c1O)=NC2=O	NCI-H226 lung	-1.84% (active)
O=C(CN1CCOCC1)Nc1ccc(-c2nc3ccccc3s2)cc1	NCI-H226 lung	95% (inactive)
CC1Cc2c(N(C)C)ncnc2N(C)c2ccc(Cl)cc21 (configuration not stated)	NCI-H226 lung	85.6% (inactive)
O=C(O)c1ccc(-n2c(=O)c3ccccc3c3ccccc3c2=O)cc1	NCI-H226 lung	99.8% (inactive)
COc1cc(NC(=O)CSc2nc3ccc(C)cc3c(=O)n2-c2ccccc2)cc(OC)c1OC	NCI-H226 lung	82.6% (inactive)
O=C(CCC(=O)OC1CCCC1)OC1CCCC1	NCI-H226 lung	96.3% (inactive)
O=C(Nc1ccc(I)cc1)c1cccc([N+](=O)[O-])c1O	NCI-H226 lung	20.5% (inactive)
O=C(Nc1ccc(Cl)cc1)c1cc(-c2ccc(F)cc2)c2sc(=O)[nH]c2n1	NCI-H226 lung	11.6% (inactive)

---

# Test system: HCT-116 colon
# testMethodNotes: NCI-60 one-dose screen, 48 h
# cond: 10 µM unless noted
Compounds without any hit were thinned out: in the full panel of roughly 83,000, 20% have a hit. Activity calls are given as the source filed them. How the source made its calls: active means growth percent below 10; inactive means the rest.
Classes used: true = active, false = inactive

> print(dat)
                                   compound  answerlabel
1  O=C(NCCCN1CCN(CCCNC(=O)C2CCCCC2)CC1)C1CCCCC1        false
2  COc1cc(C2C3=C(COC3=O)Nc3c2ccc2c3CCCC2)cc2c1OCO2 (stereo not drawn)         true
3  C=CCn1c(C)nc2ccc(Nc3nc(Nc4ccc(F)cc4)nc4ccccc34)cc21        false
4  Cc1cc2c(C(C)C)c(O)c(O)c(C=NCCCCCCC(=O)O)c2c(O)c1-c1c(C)cc2c(C(C)C)c(O)c(O)c(C=NCCCCCCC(=O)O)c2c1O        false
5           Nc1ccccc1C#C/C=C\C#Cc1cccc(O)c1        false
6  O=C1NCC(c2cc3ccccc3[nH]c2=O)Nc2ccccc21 (stereo not drawn)        false
7  COc1ccc(Cn2c(SC)nc(=O)n(Cc3ccc(Cl)cc3)c2=O)cc1        false
8  Cc1ccc2c(c1)C(C)Cc1c(ncnc1-n1cnc3ccccc31)N2C (stereo not drawn)         true

---

# System: HCT-116 colon
# testMethodNotes: NCI-60 one-dose screen, 48 h (100 = growth as untreated, 0 = no growth, -100 = all killed)
# cond: 10 µM unless noted
About 83,000 compounds went through this panel and 20% of them were active in at least one assay; those are over-represented in the sample as a whole.
The reader will find reported growth values listed item by item below.
measureName: growth (%)

> print(dat)
                                    molecule  quantitativereadout
 1  O=[N+]([O-])c1cc(S(=O)(=O)OCC2CO2)ccc1Cl (stereo not given)                   54
 2  Cc1cc(C(=O)CSc2nc3ccccc3c(=O)[nH]2)c(C)n1C                  106
 3  Cc1ccc(C(=O)c2sc3nc4c(cc3c2N)CCCC4)c(C)c1                 25.3
 4                 CCOC(=O)/C=C\C(=O)NC(N)=O                 86.4
 5  COc1ccc(-c2nc3sccn3c2-c2ccnc(NCCCNS(=O)(=O)c3ccc(F)cc3)n2)cc1                 8.56
 6  O=c1[nH]c(CN2CCN(c3ccccc3F)CC2)nc2sc3c(c12)CCC3                  105
 7   Oc1ccc(Cl)cc1-c1cc(-c2ccc(Cl)cc2)n[nH]1                 43.8
 8                    COc1cc(C(=O)CCCl)ccc1O                  100
 9  Cc1ccc(S(=O)(=O)OC2COCOC2C(OS(=O)(=O)c2ccc(C)cc2)C2OCOCC2OS(=O)(=O)c2ccc(C)cc2)cc1 (stereo not given)                  105
10  O=S(=O)(NCCCNc1nccc(-c2c(-c3ccc(F)c(O)c3)nc3sccn23)n1)c1ccc(Cl)cc1                 46.3

// provenance: PubChem BioAssay (NCI)
